# study_target: CYP 2C9 (Homo sapiens)
# Sequence (P11712 whole entry): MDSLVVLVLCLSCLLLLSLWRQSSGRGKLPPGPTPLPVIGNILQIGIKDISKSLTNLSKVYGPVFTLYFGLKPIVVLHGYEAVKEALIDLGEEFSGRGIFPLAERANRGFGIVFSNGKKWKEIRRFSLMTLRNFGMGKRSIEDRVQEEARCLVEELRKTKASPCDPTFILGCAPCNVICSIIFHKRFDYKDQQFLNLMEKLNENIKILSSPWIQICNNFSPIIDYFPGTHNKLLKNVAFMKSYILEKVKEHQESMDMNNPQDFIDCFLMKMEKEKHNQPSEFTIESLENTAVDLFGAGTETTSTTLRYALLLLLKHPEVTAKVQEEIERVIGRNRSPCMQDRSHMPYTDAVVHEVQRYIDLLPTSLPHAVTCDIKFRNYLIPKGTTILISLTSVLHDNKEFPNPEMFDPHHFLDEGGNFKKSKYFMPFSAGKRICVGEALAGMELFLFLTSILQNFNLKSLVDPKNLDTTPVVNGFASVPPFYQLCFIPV
pIC50: −log10 of the molar value.
observation_type: pIC50

Task item: Item: CCC(C)(C)c1ccc(OCC(O)CN2CCCC2)c(C(C)(C)CC)c1.Cl (stereo not shown) Test system: CYP 2C9 (Homo sapiens) Read-out: pIC50 Value: ?
Reply: < 5.00

---

# protocol_text: BBB-PAMPA
# Format: in vitro ADME
# measurement_context: PAMPA, pH 7.4
observation_type: Papp at 4 h, 50 μM (×10⁻⁶ cm/s)
# output: bare number, implied unit ×10⁻⁶ cm/s

Task item: What value of measured Papp at 4 h, 50 μM is listed for CC(=O)[C@H]1CC[C@H]2[C@@H]3CCC4=CC(=O)CC[C@]4(C)[C@H]3CC[C@]12C [progesterone, reference compound] ?
Reply: 50.9

---

# protocol_text: BBB-PAMPA
# Type: in vitro ADME
# measurement_context: PAMPA; 50 μM, pH 7.4, 25°C, 4 h; read-out: Effective permeability coefficient Pe
# Procedure: Commercially available Double-Sink PAMPA (Pion® Double sink) assay was performed using a two compartment 96-well microtiter plate and protocols specified by the manufacturer. […] Stock solutions of controls and YIAD002 were dissolved in DMSO (10 mM) and subsequently diluted to 200-fold in pION buffer (pH 7.4) to 50 μM. […] Compound concentration in the reference, donor, and acceptor plates were measured on a UV plate.
observation_type: Papp at 4 h, 50 μM (×10⁻⁶ cm/s)
# output: bare number, implied unit ×10⁻⁶ cm/s

Task item: What value of measured Papp at 4 h, 50 μM is listed for CCC(C)(C)c1ccc(OCC(O)CN2CCCC2)c(C(C)(C)CC)c1.Cl (stereo not shown) ?
Reply: 36.8

---

# study_target: CYP 3A4 (Homo sapiens, UniProt P08684)
# Sequence (P08684 whole entry): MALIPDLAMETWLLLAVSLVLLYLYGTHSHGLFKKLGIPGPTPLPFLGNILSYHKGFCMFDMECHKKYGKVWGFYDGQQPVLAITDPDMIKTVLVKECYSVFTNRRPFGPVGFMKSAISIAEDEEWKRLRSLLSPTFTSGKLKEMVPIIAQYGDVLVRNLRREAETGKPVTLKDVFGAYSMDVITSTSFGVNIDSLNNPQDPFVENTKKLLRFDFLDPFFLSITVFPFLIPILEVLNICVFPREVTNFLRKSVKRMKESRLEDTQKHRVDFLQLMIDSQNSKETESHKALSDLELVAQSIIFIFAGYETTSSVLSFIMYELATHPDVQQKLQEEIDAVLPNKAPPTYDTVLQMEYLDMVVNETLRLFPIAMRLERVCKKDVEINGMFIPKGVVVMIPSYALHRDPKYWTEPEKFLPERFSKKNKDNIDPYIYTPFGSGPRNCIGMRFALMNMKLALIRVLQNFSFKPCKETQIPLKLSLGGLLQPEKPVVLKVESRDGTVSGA
observation_type: IC50

Task item: Item: CCC(C)(C)c1ccc(OCC(O)CN2CCCC2)c(C(C)(C)CC)c1.Cl (stereo not shown) Test system: CYP 3A4 (Homo sapiens, UniProt P08684) Read-out: IC50 Value: ?
Reply: > 10 µM

---

# study_target: CYP 1A2 (Homo sapiens, UniProt P05177)
# Sequence (P05177 1-516): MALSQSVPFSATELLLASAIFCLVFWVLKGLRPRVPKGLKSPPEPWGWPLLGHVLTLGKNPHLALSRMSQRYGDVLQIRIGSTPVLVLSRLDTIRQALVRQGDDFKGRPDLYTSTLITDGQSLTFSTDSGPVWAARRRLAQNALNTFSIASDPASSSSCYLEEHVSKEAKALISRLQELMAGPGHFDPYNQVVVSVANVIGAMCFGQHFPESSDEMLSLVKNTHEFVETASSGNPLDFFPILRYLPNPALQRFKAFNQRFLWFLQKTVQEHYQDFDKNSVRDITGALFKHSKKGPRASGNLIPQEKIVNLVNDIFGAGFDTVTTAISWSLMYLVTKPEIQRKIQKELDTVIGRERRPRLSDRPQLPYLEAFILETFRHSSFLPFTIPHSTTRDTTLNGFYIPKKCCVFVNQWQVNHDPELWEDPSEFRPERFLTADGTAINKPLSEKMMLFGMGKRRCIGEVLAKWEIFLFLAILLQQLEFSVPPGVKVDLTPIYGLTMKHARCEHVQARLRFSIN
observation_type: IC50

Task item: What value of measured IC50 is listed for CCC(C)(C)c1ccc(OCC(O)CN2CCCC2)c(C(C)(C)CC)c1.Cl (stereo not shown) ?
Reply: > 10 µM
